molecular target: Y2 receptors (Homo sapiens, UniProt P49146); construct: endogenous in cells; host or cells: KAN-Ts cells (membranes); experiment: Radioligand binding assay ([125I]PYY, KAN-Ts cell membranes); conditions: Table 1, [125I]PYY 80 pM, average of results, read-out: IC50
measurement kind: IC50 (nM)
Dear colleague, please return just the value in nM, with no unit written.

compound | IC50 (nM)
CCNC(=O)C(c1ccccc1)N1CCN(c2ccc(NC(=O)Nc3cc(C)ccc3C)cc2F)CC1 (stereo not shown) | 260
CCNC(=O)C(c1ccccc1)N1CCN(c2ccc(NC(=O)C(CC)CC)cc2F)CC1 (stereo not shown) | 377
COC(=O)C(c1ccccc1)N1CCN(c2ccc(NC(=O)C3Cc4ccccc43)cc2)CC1 (stereo not shown) | 4000

Switching to the query record.
Sample CCC(CC)C(=O)Nc1ccc(N2CCN(C(C(=O)OC)c3cccc(F)c3F)CC2)c(F)c1 (stereo not shown) , system: Y2 receptors (Homo sapiens, UniProt P49146). Its IC50 is 440

###

target: Y2 receptors (Homo sapiens, UniProt P49146); construct: endogenous in cells; host or cells: KAN-Ts cells (membranes); assay: Radioligand binding assay ([125I]PYY, KAN-Ts cell membranes); conditions: Table 1, [125I]PYY 80 pM, average of results, read-out: IC50
measurement kind: pIC50
pIC50 field: float, defined as -log10 of concentration (mol/L).

Some molecules with recorded pIC50:
molecule | measurement kind | value reported
CCN(CC)C(=O)C(c1ccccc1)N1CCN(c2ccc(NC(=O)Cc3ccccc3OC)cc2F)CC1 (stereo not shown) | pIC50 | 6.52
CCN(CC)C(=O)C(c1ccccc1)C1CCN(c2ccc(NC(=O)c3ccsc3C)cc2F)CC1 (stereo not shown) | pIC50 | 7.00
CCN(CC)C(=O)C(c1ccccc1)N1CCN(c2ccc(NC(=O)c3c(C)noc3C)cc2F)CC1 (stereo not shown) | pIC50 | 7.59

Quick note, pIC50 for CCCCC(CC)C(=O)Nc1ccc(N2CCN(C(C(=O)OC)c3ccccc3)CC2)c(F)c1 (stereo not shown) landed at 7.00

###

Molecular target: Y2 receptors (Homo sapiens, UniProt P49146)
Construct: endogenous in cells; host or cells: KAN-Ts cells (membranes)
Sequence (P49146 1-381): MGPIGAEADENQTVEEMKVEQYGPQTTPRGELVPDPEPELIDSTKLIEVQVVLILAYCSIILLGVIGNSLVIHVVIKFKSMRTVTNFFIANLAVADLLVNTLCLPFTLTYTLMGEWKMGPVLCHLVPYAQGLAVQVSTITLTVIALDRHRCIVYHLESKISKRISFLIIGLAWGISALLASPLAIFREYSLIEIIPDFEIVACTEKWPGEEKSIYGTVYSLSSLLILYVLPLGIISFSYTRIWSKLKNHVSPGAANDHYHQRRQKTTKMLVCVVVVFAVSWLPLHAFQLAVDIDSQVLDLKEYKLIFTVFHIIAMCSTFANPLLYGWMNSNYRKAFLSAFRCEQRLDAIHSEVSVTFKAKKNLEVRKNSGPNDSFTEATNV
Test: Radioligand binding assay ([125I]PYY, KAN-Ts cell membranes)
Settings: Table 2, [125I]PYY 80 pM, average of results, read-out: IC50
Reported pIC50 by item:
pIC50 field: float, defined as -log10 of concentration (mol/L).

Some compounds with recorded pIC50:
compound | pIC50
CCC(CC)C(=O)Nc1ccc(N2CCC(C(C(=O)N3CCCC3)c3ccccc3)CC2)c(F)c1 (centres unmarked) | 7.59
CCN(CC)C(=O)Cc1ccc(N2CCN(C(C(=O)N3CCC(F)(F)C3)c3ccccc3)CC2)c(F)c1 (centres unmarked) | 5.46
CCC(CC)NC(=O)c1ccc(N2CCN(C(C(=O)N(CC)CC)c3ccccc3)CC2)c(F)c1 (centres unmarked) [Example 190] | 5.24
CCN(CC)C(=O)C(c1ccccc1)N1CCN(c2ccc(NC(=O)C3CC3C)cc2F)CC1 (centres unmarked) | 6.92
CCC(CC)C(=O)Nc1ccc(N2CCC(C(C(=O)N(CC)CC)c3ccccc3)CC2)c(Br)c1 (centres unmarked) | 7.43

Quick note, pIC50 for CCC(CC)C(=O)Nc1ccc(N2CCC(C(C(=O)N3CCC(F)(F)CC3)c3ccccc3)CC2)c(F)c1 (centres unmarked) landed at 7.70

Quick note, pIC50 for CCC(CC)C(=O)Nc1cc(F)c(N2CCN(C(C(=O)N(CC)CC)c3ccccc3)CC2)c(F)c1 (centres unmarked) landed at 7.02

Quick note, pIC50 for CCOC(=O)C(c1ccccc1)N1CCN(c2ccc(N3CCN(C(CC)CC)S3(=O)=O)cc2F)CC1 (centres unmarked) landed at 6.57
